target: UniProt:P35372
API: label(entry) gives satisfied if the entry's EC50 is strictly smaller than 8 nM; on equality or larger values it gives not satisfied.

Below are worked cases with known answers.
structure_smiles=O=C(CCC(=O)Oc1ccc2c(c1)[C@@]13CCCC[C@H]1[C@@H](C2)N(CC1CCC1)CC3)Oc1ccc2c(c1)[C@@]13CCCC[C@H]1[C@@H](C2)N(CC1CCC1)CC3 class_label=satisfied
structure_smiles=O=C(CCCCCCC(=O)Oc1ccc2c(c1)[C@@]13CCCC[C@H]1[C@@H](C2)N(CC1CCC1)CC3)Oc1ccc2c(c1)[C@@]13CCCC[C@H]1[C@@H](C2)N(CC1CCC1)CC3 class_label="not satisfied"
structure_smiles=O=C(CCCCCCCCC(=O)Oc1ccc2c(c1)[C@@]13CCCC[C@H]1[C@@H](C2)N(CC1CCC1)CC3)Oc1ccc2c(c1)[C@@]13CCCC[C@H]1[C@@H](C2)N(CC1CCC1)CC3 class_label=satisfied
structure_smiles=O=C(/C=C/C(=O)Oc1ccc2c(c1)[C@@]13CCCC[C@H]1[C@@H](C2)N(CC1CCC1)CC3)Oc1ccc2c(c1)[C@@]13CCCC[C@H]1[C@@H](C2)N(CC1CCC1)CC3 class_label=satisfied

Shift focus to the following entry.
I'd appreciate it if you could check whether "O=C(CCCCCCCC(=O)Oc1ccc2c(c1)[C@@]13CCCC[C@H]1[C@@H](C2)N(CC1CCC1)CC3)Oc1ccc2c(c1)[C@@]13CCCC[C@H]1[C@@H](C2)N(CC1CCC1)CC3" has EC50 smaller than 8 nM.
not satisfied

====

target: Mu-type opioid receptor (Homo sapiens, UniProt P35372); test: Maximal percent inhibitory activity was determined in stimulating [35S]-GTP-gamma S binding mediated by the Opioid receptor mu 1 in chinese Hamster Ovary (CHO) cell membranes
Sequence (P35372 whole entry): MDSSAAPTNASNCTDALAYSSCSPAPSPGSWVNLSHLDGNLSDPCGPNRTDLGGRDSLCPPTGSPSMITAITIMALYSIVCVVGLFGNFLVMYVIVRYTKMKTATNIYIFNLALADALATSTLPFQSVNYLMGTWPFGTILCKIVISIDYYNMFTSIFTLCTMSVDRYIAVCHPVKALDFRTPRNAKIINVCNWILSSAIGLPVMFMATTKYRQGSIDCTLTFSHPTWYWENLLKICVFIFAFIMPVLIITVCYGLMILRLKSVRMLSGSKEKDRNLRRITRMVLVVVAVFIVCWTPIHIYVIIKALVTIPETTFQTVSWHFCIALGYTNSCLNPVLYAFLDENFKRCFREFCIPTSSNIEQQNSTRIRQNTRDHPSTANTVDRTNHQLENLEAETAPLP
Readout Label: Imax
Give the number first and the unit second.

The examples below pair each entry with its known result.
structure_smiles=O=C(CCC(=O)Oc1ccc2c(c1)[C@@]13CCCC[C@H]1[C@@H](C2)N(CC1CCC1)CC3)Oc1ccc2c(c1)[C@@]13CCCC[C@H]1[C@@H](C2)N(CC1CCC1)CC3 readout_label=Imax value=50%
structure_smiles=COC(=O)CCCCCCCCC(=O)Oc1ccc2c(c1)[C@@]13CCCC[C@H]1[C@@H](C2)N(CC1CCC1)CC3 readout_label=Imax value=50%
structure_smiles=O=C(CCCCCCCCCCC(=O)Oc1ccc2c(c1)[C@@]13CCCC[C@H]1[C@@H](C2)N(CC1CCC1)CC3)Oc1ccc2c(c1)[C@@]13CCCC[C@H]1[C@@H](C2)N(CC1CCC1)CC3 readout_label=Imax value=60%

# lookup: Imax of "O=C(CCCCCCC(=O)Oc1ccc2c(c1)[C@@]13CCCC[C@H]1[C@@H](C2)N(CC1CCC1)CC3)Oc1ccc2c(c1)[C@@]13CCCC[C@H]1[C@@H](C2)N(CC1CCC1)CC3"
100%

====

Each item that follows carries a reported Selectivity.
molecular target: Opioid receptors; delta & kappa (Homo sapiens) (UniProt P41145+P41143); assay: Selective inhibitory activity was determined against kappa & delta opioid receptor in chinese Hamster Ovary (CHO) cell membranes
Sequence (P41143 whole entry, looked up): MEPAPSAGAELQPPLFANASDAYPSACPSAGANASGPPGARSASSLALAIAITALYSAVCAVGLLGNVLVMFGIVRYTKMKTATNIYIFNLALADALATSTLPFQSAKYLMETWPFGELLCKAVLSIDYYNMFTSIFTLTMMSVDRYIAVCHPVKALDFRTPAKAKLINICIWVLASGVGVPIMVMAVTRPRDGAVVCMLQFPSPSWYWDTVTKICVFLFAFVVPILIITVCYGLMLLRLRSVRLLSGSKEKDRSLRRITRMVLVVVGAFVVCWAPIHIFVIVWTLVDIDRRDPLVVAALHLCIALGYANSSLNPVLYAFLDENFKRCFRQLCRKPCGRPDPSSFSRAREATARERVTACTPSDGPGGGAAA
Sequence (P41145 whole entry, looked up): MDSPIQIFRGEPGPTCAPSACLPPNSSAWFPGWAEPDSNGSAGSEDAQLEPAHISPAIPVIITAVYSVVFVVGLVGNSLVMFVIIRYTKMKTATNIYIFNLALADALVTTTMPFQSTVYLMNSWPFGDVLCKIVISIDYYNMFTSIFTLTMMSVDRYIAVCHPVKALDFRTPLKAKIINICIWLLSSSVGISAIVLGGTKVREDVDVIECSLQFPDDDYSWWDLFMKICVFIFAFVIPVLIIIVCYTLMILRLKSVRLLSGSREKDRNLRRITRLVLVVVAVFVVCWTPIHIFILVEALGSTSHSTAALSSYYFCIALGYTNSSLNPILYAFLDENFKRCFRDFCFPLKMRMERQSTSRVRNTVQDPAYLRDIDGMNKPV
Please give the numeric answer without any surrounding text.

Field: example entries. Status: answers known.
structure_smiles=O=C(CCCCCCCCCCC(=O)Oc1ccc2c(c1)[C@@]13CCCC[C@H]1[C@@H](C2)N(CC1CCC1)CC3)Oc1ccc2c(c1)[C@@]13CCCC[C@H]1[C@@H](C2)N(CC1CCC1)CC3 value=75
structure_smiles=O=C(CCCCCCCCC(=O)Oc1ccc2c(c1)[C@@]13CCCC[C@H]1[C@@H](C2)N(CC1CC1)CC3)Oc1ccc2c(c1)[C@@]13CCCC[C@H]1[C@@H](C2)N(CC1CC1)CC3 value=80

For the next question, use this molecule.
What value of Selectivity has been reported for the following molecule? "O=C(CCC(=O)Oc1ccc2c(c1)[C@@]13CCCC[C@H]1[C@@H](C2)N(CC1CCC1)CC3)Oc1ccc2c(c1)[C@@]13CCCC[C@H]1[C@@H](C2)N(CC1CCC1)CC3"
120
